system name: NOG
protocol notes: reporter assay of Huesken 2005; note: test concentration or dose not given here
condition notes: siRNA
Oligonucleotides are written 5' to 3', each unit as a sugar letter and its base; * is a phosphorothioate linkage, no mark a phosphodiester; rarer units and linkages stand in square brackets, end groups in braces. Plain capitals give the bases only. d = 2'-deoxy (DNA); r = 2'-OH (RNA)
measurement name: normalised inhibition (eCFP-eYFP dual reporter) (%)

# substance, measured number
rows = [
    ("sense rCrCrCrGrUrGrCrUrGrUrArCrGrCrGrUrGrGrAdTdT / antisense rUrCrCrArCrGrCrGrUrArCrArGrCrArCrGrGrGdGdC", 60.3),
    ("sense rGrArGrCrUrGrGrArCrCrArGrCrUrGrCrUrGrCdTdT / antisense rGrCrArGrCrArGrCrUrGrGrUrCrCrArGrCrUrCdCdG", 71.8),
    ("sense rCrArCrCrUrCrArCrGrGrUrGrCrUrGrCrGrGrUdTdT / antisense rArCrCrGrCrArGrCrArCrCrGrUrGrArGrGrUrGdCdA", 56.3),
]

----------
Entries and their normalised inhibition (eCFP-eYFP dual reporter) values follow.
system name: UBE2M
protocol notes: reporter assay of Huesken 2005
condition notes: siRNA
Oligonucleotides are written 5' to 3', each unit as a sugar letter and its base; * is a phosphorothioate linkage, no mark a phosphodiester; rarer units and linkages stand in square brackets, end groups in braces. Plain capitals give the bases only. d = 2'-deoxy (DNA); r = 2'-OH (RNA)
measurement name: normalised inhibition (eCFP-eYFP dual reporter)

# substance, result
measured = [
    ("sense rUrUrUrGrUrGrUrUrCrArGrUrUrUrUrArArGrGdTdT / antisense rCrCrUrUrArArArArCrUrGrArArCrArCrArArAdCdT", "51.1%"),
    ("sense rGrGrUrGrArArGrUrGrUrGrArGrArCrArArUrGdTdT / antisense rCrArUrUrGrUrCrUrCrArCrArCrUrUrCrArCrCdTdT", "81.7%"),
    ("sense rGrGrCrGrGrCrUrGrUrUrUrGrArGrCrArGrArAdTdT / antisense rUrUrCrUrGrCrUrCrArArArCrArGrCrCrGrCrCdGdG", "76.6%"),
    ("sense rArGrGrCrGrUrCrGrGrCrGrGrCrGrCrArGrCrUdTdT / antisense rArGrCrUrGrCrGrCrCrGrCrCrGrArCrGrCrCrUdTdC", "51.7%"),
    ("sense rUrCrUrUrCrUrUrGrGrArGrCrCrCrArArCrCrCdTdT / antisense rGrGrGrUrUrGrGrGrCrUrCrCrArArGrArArGrAdGdA", "56.1%"),
    ("sense rGrArUrGrArGrGrGrCrUrUrCrUrArCrArArGrAdTdT / antisense rUrCrUrUrGrUrArGrArArGrCrCrCrUrCrArUrCdAdG", "82.7%"),
]

----------
system name: TMEM63B
protocol notes: reporter assay of Huesken 2005
condition notes: siRNA
Oligonucleotides are given in HELM: sugar(base)linkage, 5' to 3'; d 2'-deoxyribose, r ribose, m 2'-O-methylribose, p phosphate. ss, as = sense and antisense strand
measurement name: normalised inhibition (eCFP-eYFP dual reporter) (%)

# substance, system name, result unit, measured number
data = [
    ("RNA1{r(U)p.r(C)p.r(A)p.r(G)p.r(A)p.r(G)p.r(G)p.r(U)p.r(G)p.r(G)p.r(A)p.r(C)p.r(G)p.r(G)p.r(G)p.r(G)p.r(A)p.r(U)p.r(G)p.d(T)p.d(T)}|RNA2{r(C)p.r(A)p.r(U)p.r(C)p.r(C)p.r(C)p.r(C)p.r(G)p.r(U)p.r(C)p.r(C)p.r(A)p.r(C)p.r(C)p.r(U)p.r(C)p.r(U)p.r(G)p.r(A)p.d(G)p.d(T)}$$$RNA1{StrandType:ss}|RNA2{StrandType:as}$", "TMEM63B", "%", 29.5),
    ("RNA1{r(C)p.r(C)p.r(G)p.r(U)p.r(G)p.r(C)p.r(A)p.r(C)p.r(U)p.r(A)p.r(C)p.r(C)p.r(U)p.r(G)p.r(U)p.r(C)p.r(C)p.r(U)p.r(U)p.d(T)p.d(T)}|RNA2{r(A)p.r(A)p.r(G)p.r(G)p.r(A)p.r(C)p.r(A)p.r(G)p.r(G)p.r(U)p.r(A)p.r(G)p.r(U)p.r(G)p.r(C)p.r(A)p.r(C)p.r(G)p.r(G)p.d(C)p.d(A)}$$$RNA1{StrandType:ss}|RNA2{StrandType:as}$", "TMEM63B", "%", 86.8),
]
